reported_endpoint: melting point

molecule=O=C(NCCO)c1cccc(-c2ccc3c(c2)N(Cc2cc(Cl)cc(Cl)c2)CC3)c1 result="121 to 128 °C"
molecule=CCOC(=O)c1ccc(-c2nn(Cc3ccccc3)c3ccccc23)o1 result="98 to 99 °C"
molecule=O=C(Nc1cccc(S(=O)(=O)N2CCCC2)c1)c1cnn2c(C(F)(F)F)cc(-c3ccc(C(F)(F)F)cc3)nc12 result="241 °C"

The molecule listed as COCCCNC(=O)c1ccc(-c2cc(-c3c(-c4cccc(C)n4)nc4ccccn34)ccn2)cc1 shows melting point equal to 165 °C

The molecule listed as CC(Cc1ccc(OCc2cccc(C(N)=O)c2)cc1)NCCC(c1ccccc1)c1ccccc1 (stereo not drawn) shows melting point equal to 188 to 190 °C

The molecule listed as N[C@@H](Cc1ccccc1)C(=O)N1CCC[C@H]1C(=O)OCc1ccccc1 shows melting point equal to 120 to 121 °C

The molecule listed as Cc1sc(-c2ccccc2)nc1COc1cc(COc2ncccc2C=O)on1 shows melting point equal to 123 to 124 °C

The molecule listed as CCc1cccc(-c2ccc(S(=O)(=O)N3c4ccccc4CC3C(=O)NCc3ccc(CC(=O)OC)cc3)cc2)c1 (stereo not drawn) shows melting point equal to 70 to 75 °C
